molecular target: PIM1 (Homo sapiens (Human)); assay: biochemical; type: biochemical; details: 20 pM PIM1, 1 μM FAM-peptide, 10 μM ATP, 90 minutes at room temperature; read-out: PIM1 LC3K (KI)
quantity.measured: Ki (pM)

Sample records with Ki:
Cn1ncc(NC(=O)c2nc(-c3cc(F)cc(F)c3F)sc2N)c1[C@@H]1CC[C@@H](N)[C@@H](F)CO1    37
Cn1ncc(NC(=O)c2nc(C3CCCC3)sc2N)c1[C@@H]1CC[C@@H](N)[C@@H](F)CO1    992
Cc1nn(C)cc1-c1nc(C(=O)Nc2cnn(C)c2[C@@H]2CC[C@@H](N)[C@@H](F)CO2)c(N)s1    26
Cn1ncc(NC(=O)c2csc(-c3n[nH]c4ccccc34)n2)c1[C@@H]1CC[C@@H](N)[C@H](F)CO1    22
C[C@@H]1C[C@H](N)CC[C@H](c2c(NC(=O)c3nc(-c4c(F)cccc4F)sc3N)cnn2C)O1    81

a = CO[C@H]1CO[C@H](c2c(NC(=O)c3nc(-c4c(F)cccc4C(F)(F)F)sc3N)cnn2C)CC[C@H]1N
b = Cn1ncc(NC(=O)c2nc(-c3c(F)cccc3F)sc2N)c1C1=CCOCC1
Please indicate which entry, a or b , has the lower recorded Ki value. State your choice using its label. a
(a: 83 pM, b: 485 pM)

###

target: PIM1 (Homo sapiens (Human)); experiment: biochemical; assay type: biochemical; conditions: 20 pM PIM1, 1 μM FAM-peptide, 10 μM ATP, 90 minutes at room temperature; read-out: PIM1 LC3K (KI)
pKi: −log10 of the molar value.
quantity.measured: pKi

Please review the following examples before continuing.
Cn1ncc(NC(=O)c2nc(-c3ccncc3F)sc2N)c1[C@@H]1CC[C@@H](N)[C@@H](F)CO1    10.29
Cn1ncc(NC(=O)c2nc(-c3c(F)cccc3F)sc2N)c1C1CC(F)(F)CC(N)CO1 (stereo not drawn) [Example 132]    10.85
Cn1ncc(NC(=O)c2nc(-c3cccc(C(F)(F)F)c3F)sc2N)c1[C@@H]1CC[C@@H](N)[C@H](F)CO1    9.97
Cn1ncc(NC(=O)c2csc(-c3c(F)cc([C@H]4CCCO4)cc3F)n2)c1[C@@H]1CC[C@@H](N)[C@H](F)CO1 (single isomer, unassigned)    10.15
Cn1ncc(NC(=O)c2csc(-c3cnn(CC(C)(C)O)c3)n2)c1[C@@H]1CC[C@@H](N)[C@H](F)CO1    9.91
Cn1ncc(NC(=O)c2nc(-c3cccc(C(F)(F)F)c3F)sc2N)c1[C@@H]1CC[C@@H](N)[C@@H](F)CO1    10.55

a = Cn1ncc(NC(=O)c2csc(-c3c(F)ccc(C(F)F)c3F)n2)c1[C@@H]1CC[C@@H](N)[C@H](F)CO1
b = Cn1ncc(NC(=O)c2nc(-c3c(F)cccc3F)sc2N)c1[C@H]1CC[C@H](N)[C@@H](F)CO1
Which entry shows the lesser value of pKi here, a or b ? Mark your answer with the label of the selected entry. b

###

target: PIM1 (Homo sapiens (Human)); experiment: biochemical; format: biochemical; conditions: 20 pM PIM1, 1 μM FAM-peptide, 10 μM ATP, 90 minutes at room temperature; read-out: PIM1 LC3K (KI)
quantity.measured: Ki (nM)

A = Cn1ncc(NC(=O)c2nc(-c3c(F)cccc3C(F)(F)F)sc2N)c1[C@@H]1CC[C@@H](N)[C@@H](F)CO1 [Example 278]
B = Cn1ncc(NC(=O)c2nc(-c3ccccc3)sc2N)c1[C@@H]1CC[C@@H](N)[C@H](F)CO1 [Example 320]
// pick min by Ki: A , B Your answer should be the label attached to the chosen record. B
(B: 0.036 nM, A: 0.061 nM)

###

tested on: MM1.S (multiple myeloma) cells; test: In vitro cell proliferation, MM1.S multiple myeloma cells; format: cell-based; settings: Homo sapiens, MM1.S, 72 h, MM1.S cells, 72 hours, CELL TITER GLO; read-out: Prolif MM1S ATP (EC50)
quantity.measured: EC50 (µM)

1 = Cn1ncc(NC(=O)c2csc(-c3ccccc3F)n2)c1[C@@H]1CC[C@@H](N)[C@H](F)CO1
2 = Cn1ncc(NC(=O)c2csc(-c3cccnc3)n2)c1[C@@H]1CC[C@@H](N)[C@H](F)CO1
3 = Cc1cccc(-c2nc(C(=O)Nc3cnn(C)c3[C@@H]3CC[C@@H](N)[C@H](F)CO3)cs2)c1F
4 = COc1ccc(F)c(-c2nc(C(=O)Nc3cnn(C)c3[C@@H]3CC[C@@H](N)[C@H](OC)CO3)cs2)c1F
Form: Sort by [EC50] Order [ ascending ] Provide the ranking by listing each label in its place in the requested order. 3, 1, 4, 2
(3: 0.452 µM, 1: 1.5 µM, 4: 2.4 µM, 2: 5.7 µM)

###

target: PIM1 (Homo sapiens (Human), UniProt P11309); assay: biochemical; assay type: biochemical; settings: 20 pM PIM1, 1 μM FAM-peptide, 10 μM ATP, 90 minutes at room temperature; read-out: PIM1 LC3K (KI)
Sequence (P11309 whole entry): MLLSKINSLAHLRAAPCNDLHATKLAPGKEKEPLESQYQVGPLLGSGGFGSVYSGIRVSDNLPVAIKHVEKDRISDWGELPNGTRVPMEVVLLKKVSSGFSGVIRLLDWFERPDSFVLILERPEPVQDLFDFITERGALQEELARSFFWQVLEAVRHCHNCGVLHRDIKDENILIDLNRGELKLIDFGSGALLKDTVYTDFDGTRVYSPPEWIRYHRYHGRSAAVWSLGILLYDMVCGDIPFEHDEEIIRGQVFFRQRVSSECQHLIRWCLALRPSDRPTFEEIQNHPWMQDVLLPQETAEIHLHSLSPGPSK
pKi: −log10 of the molar value.
quantity.measured: pKi

Cn1ncc(NC(=O)c2csc(-c3ccccc3)n2)c1[C@@H]1CC[C@@H](N)[C@H](F)CO1    10.68
Cn1ncc(NC(=O)c2nc(-c3c(F)cccc3F)sc2N)c1C1CCC(O)CCO1 (centres unmarked)    10.27
Cn1ncc(NC(=O)c2nc(-c3c(F)cccc3F)sc2N)c1[C@H]1OC[C@@](C)(CO)CO1    9.29

a = Cn1ncc(NC(=O)c2csc(-c3cc(F)ccc3F)n2)c1[C@@H]1CC[C@@H](N)[C@H](F)CO1
b = CN(C)C(=O)c1ccc(F)c(-c2nc(C(=O)Nc3cnn(C)c3[C@@H]3CC[C@@H](N)[C@H](F)CO3)cs2)c1F
c = Cc1cccc(F)c1-c1nc(C(=O)Nc2cnn(C)c2[C@@H]2CC[C@@H](N)[C@H](F)CO2)c(C)s1
d = Cn1ncc(NC(=O)c2nc(-c3cccc(F)c3F)sc2N)c1[C@@H]1CC[C@@H](N)[C@H](F)CO1
List from greatest to least pKi. # format: label list in the order the request specifies d, a, b, c

###

target: PIM1 (Homo sapiens (Human), UniProt P11309); assay: biochemical; format: biochemical; settings: 20 pM PIM1, 1 μM FAM-peptide, 10 μM ATP, 90 minutes at room temperature; read-out: PIM1 LC3K (KI)
quantity.measured: Ki (nM)

Cn1ncc(NC(=O)c2ccc(F)c(-c3c(F)cc(OCCO)cc3F)n2)c1[C@@H]1CC[C@@H](N)[C@H](F)CO1 [Example 209]    0.016
COC(c1cc(F)c(-c2nc(C(=O)Nc3cnn(C)c3[C@@H]3CC[C@@H](N)[C@H](F)CO3)cs2)c(F)c1)C1CC1 (stereo partly shown) [Example 276]    0.084

A = COC1(c2cc(F)c(-c3nc(C(=O)Nc4cnn(C)c4[C@@H]4CC[C@@H](N)[C@H](F)CO4)cs3)c(F)c2)COC1 [Example 339]
B = CO[C@H]1COC(c2c(NC(=O)c3nc(-c4c(F)cccc4F)sc3N)cnn2C)CC[C@@H]1N (stereo partly shown) [Example 128]
C = Cn1ncc(NC(=O)c2csc(-n3cccn3)n2)c1[C@@H]1CC[C@@H](N)[C@H](F)CO1 [Example 388]
D = Cn1ncc(NC(=O)c2csc(-c3cc(Cl)ccc3F)n2)c1[C@@H]1CC[C@@H](N)[C@H](F)CO1 [Example 302]
E = Cn1ncc(NC(=O)c2nc(-c3c(F)cccc3F)sc2N)c1[C@H]1CC[C@@H](N)C(F)CO1 (stereo in doubt) [Example 148]
Kindly order the items shown according to Ki, from the highest value down. # output: labels, in the requested order B, C, E, D, A
(B: 0.476 nM, C: 0.157 nM, E: 0.079 nM, D: 0.031 nM, A: 0.014 nM)

###

tested on: MM1.S (multiple myeloma) cells; test: In vitro cell proliferation, MM1.S multiple myeloma cells; assay type: cell-based; conditions: Homo sapiens, MM1.S, 72 h, MM1.S cells, 72 hours, CELL TITER GLO; read-out: Prolif MM1S ATP (EC50);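 note: cells cultured in RPMI with 10% FBS and 2 mM L-Glutamine, seeded in 384-well plates, exposed to compound, cell viability measured by luminescence after CellTiter-Glo addition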
pEC50: −log10 of the molar value.
quantity.measured: pEC50

Cn1ncc(NC(=O)c2csc(-c3c(F)cc(C4CC4)cc3F)n2)c1[C@@H]1CC[C@@H](N)[C@H](F)CO1    6.03
Cc1ccc(-c2nc(C(=O)Nc3cnn(C)c3[C@@H]3CC[C@@H](N)[C@H](F)CO3)cs2)c(F)c1    6.16
Cn1ncc(NC(=O)c2csc(-c3ccc(F)cc3F)n2)c1[C@@H]1CC[C@@H](N)[C@H](F)CO1    6.13

###

molecular target: PIM1 (Homo sapiens (Human), UniProt P11309); assay: biochemical; type: biochemical; details: 20 pM PIM1, 1 μM FAM-peptide, 10 μM ATP, 90 minutes at room temperature; read-out: PIM1 LC3K (KI)
pKi: −log10 of the molar value.
quantity.measured: pKi

Cn1ncc(NC(=O)c2nc(-c3c(F)cccc3F)sc2N)c1C1CCC(N)C(F)CO1 (centres unmarked)    10.82
Cn1ncc(NC(=O)c2csc(-n3cc4ccccc4n3)n2)c1[C@@H]1CC[C@@H](N)[C@H](F)CO1    11.70
COc1cc(F)c(-c2nc(C(=O)Nc3cnn(C)c3[C@@H]3CC[C@@H](N)[C@@H](F)CO3)ccc2F)c(F)c1    10.57
Cn1ncc(NC(=O)c2csc(-c3c(F)ccc(F)c3F)n2)c1[C@@H]1CC[C@@H](N)[C@@H](F)CO1    10.51
CC[C@@H]1CC(N)CC[C@H](c2c(NC(=O)c3nc(-c4c(F)cccc4F)sc3N)cnn2C)O1 (some centres unmarked)    9.30
CO[C@@H]1COC(c2c(NC(=O)c3nc(-c4c(F)cccc4F)sc3N)cnn2C)CC[C@H]1N (some centres unmarked)    10.59

a = C[C@@H]1O[C@H](c2c(NC(=O)c3nc(-c4c(F)cccc4F)sc3N)cnn2C)CC(F)(F)[C@]1(C)N
b = Cn1ncc(NC(=O)c2csc(-c3cnc4cccnc4c3)n2)c1[C@@H]1CC[C@@H](N)[C@H](F)CO1
Which of the two items, a and b , has the greater recorded pKi? Field: selected label. Fill in the label of the entry you choose. b
(b: 9.68, a: 8.36)
